- system: photosystem II (PSII) D1 protein (Chlamydomonas reinhardtii, UniProt P07753, G207S)
- Construct: full-length D1 from intronless psbA in the chloroplast, assembled in native PSII (with D2 and other subunits) in living algal cells; D1 mutants by ep-PCR of Ala153-Ala294 region and biolistic transformation of Del1
- assay: chlorophyll a fluorescence induction (OJIP), inhibition of 1-VJ (QA to QB electron transfer) in living algal cells
- measurement_conditions: read-out: Atrazine / I50×10^-7 M / (±SE)
pIC50: −log10 of the molar value.
observed_property: pIC50

- CCNc1nc(Cl)nc(NC(C)C)n1: 6.68

----------
- system: photosystem II (PSII) D1 protein (Chlamydomonas reinhardtii, UniProt P07753, I281T)
- Construct: full-length D1 from intronless psbA in the chloroplast, assembled in native PSII (with D2 and other subunits) in living algal cells; D1 mutants by ep-PCR of Ala153-Ala294 region and biolistic transformation of Del1
- assay: chlorophyll a fluorescence induction (OJIP), inhibition of 1-VJ (QA to QB electron transfer) in living algal cells
- measurement_conditions: read-out: Atrazine / I50×10^-7 M / (±SE)
pIC50: −log10 of the molar value.
observed_property: pIC50

* CCNc1nc(Cl)nc(NC(C)C)n1 | 6.70
